Assign Reduction in Signal from Heparin at 300 sec to each entry below.
Target: T1, recombinant human GREM1 (hGREM1-His; C-terminal 10His tagged, R&D, #5190-GR) (human, UniProt O60565 25-184)
T1 construct: range 25-184; also called recombinant human GREM1 with a C-terminal decahistidine tag
T1 sequence: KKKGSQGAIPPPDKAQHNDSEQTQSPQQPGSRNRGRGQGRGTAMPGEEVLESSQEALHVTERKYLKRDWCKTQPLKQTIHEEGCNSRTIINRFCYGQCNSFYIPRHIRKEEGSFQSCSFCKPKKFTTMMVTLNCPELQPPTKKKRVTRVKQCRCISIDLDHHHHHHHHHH
Test: BLI Octet, mAb captured, 100 nM GREM1 without vs with 5 uM heparin;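 note: octet Red96 biolayer interferometry at 25 °C, antibodies captured on anti-human IgG Fc biosensors, association of GREM1 measured with versus without heparin in HEPES-buffered saline, pH 7.4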
Give bare numbers, in nm.

Known results for binders:
H4H6256P (antibody, human IgG4, V domains shown, H4H prefix = human IgG4 Fc) VH: QVQLVESGGGVVQPGRSLRLSCAASGFTFSAYGMHWVRQGPGKGLEWVAVIWYDGSNKYYADSVKGRFTISRDNSKNTLYLQMNRLRAEDTAVYYCARDDYGDSPGFDHWGQGTLVTVSS VL: EIVMTQSPATLSVSPGERATLSCRASQSVSSELAWYQQKPGQAPRLLLYGASTRATGIPARFSGSGSGTEFTLTISSLQSEDFAVYYCQQYSNWPPWTFGQGTKVEIK	0.02
H4H6260P (antibody, human IgG4, V domains shown, H4H prefix = human IgG4 Fc) VH: QVQLVESGGGVVQPGRSLRLSCAASGFTFSTYGMHWVRQAPGKGLEWVAIIWYDGSNYYYADSVKGRFTISRDNSKNTLYLQMNSLRAEDTAVYYCAREDRNDVFDIWGQGTMVTVSS VL: EIVLTQSPATLSLSPGERATLSCRASQSVSSFLAWYQQKPGQAPRLLIYDSSNRATGIPARFSGSGSGTDFTLTISSLEPEDFAVYYCQQLSNWPPITFGQGTRLEIK	0.05

Now let's try a different one.
Name the reported Reduction in Signal from Heparin at 300 sec value associated with the binder H4H2889N (antibody, human IgG4, V domains shown, H4H prefix = human IgG4 Fc) VH: QVQLQESGPGLVKPSETLSLTCTVSGGSISNSYWSWIRQPPGKGLEWIGYIYYSGNTNYNPSLKSRVTISVDTSKNQFSLKLSSVTAADTAVYYCARVNDYSNYDSYYYGMDVWGQGTTVTVSS VL: AIQMTQSPSSLSASVGDRVTITCRASQGIRNDLGWYQQKPGKAPKLLIYAASSLQSGVPSRFSGSGSGTDFTLTISSLQPEDFATYYCLQDYNYPPTFGQGTKVDIK 0.02
